Test system: male CD IGS (Sprague Dawley derived) rats
TEST_SUMMARY: Dose range for cholinergic effects / max tolerated dose
RECORDED_CONDITIONS: ratio of max tolerated dose to hypothermia MED, rats s.c.
MEASURE: TIMTD/ MED

MOLECULE	TARGET_SYSTEM	OBSERVED_RESULT
C[C@@H](c1cccc(OC(=O)N(C)CCC=C2c3ccccc3CCc3ccccc32)c1)N(C)C [Compound 5A, S-riva-nortriptyline]	male CD IGS (Sprague Dawley derived) rats	≧100
C[C@@H](c1cccc(OC(=O)N(C)CCCC2c3ccccc3C=Cc3ccccc32)c1)N(C)C [Compound 6A, S-riva-protriptyline]	male CD IGS (Sprague Dawley derived) rats	>1
C[C@@H](c1cccc(OC(=O)N[C@H]2C[C@@H]2c2ccccc2)c1)N(C)C (stereo in doubt) [Compound 2, S-riva-tranylcypromine]	male CD IGS (Sprague Dawley derived) rats	3
C[C@@H](c1cccc(OC(=O)N(C)CCC(Oc2ccc(C(F)(F)F)cc2)c2ccccc2)c1)N(C)C (stereo partly shown) [Compound 7A, S-riva-fluoxetine]	male CD IGS (Sprague Dawley derived) rats	≧30
C[C@@H](c1cccc(OC(=O)N(C)CCCN2c3ccccc3CCc3ccccc32)c1)N(C)C [Compound 4A, S-riva-desipramine]	male CD IGS (Sprague Dawley derived) rats	≧30
CC(CC1CCCCC1)N(C)C(=O)Oc1cccc([C@H](C)N(C)C)c1 (stereo partly shown) [Compound 16, S-riva-propylhexedrine]	male CD IGS (Sprague Dawley derived) rats	≧10
C[C@@H](c1cccc(OC(=O)N2CCN(C3=Nc4ccccc4Oc4ccc(Cl)cc43)CC2)c1)N(C)C [Compound 3, S-riva-amoxapine]	male CD IGS (Sprague Dawley derived) rats	≧10
